# Target System: small-conductance Ca2+-activated K+ channels (SK channels, subtype 2) (Homo sapiens)
# Construct: expressed in transfected cells; host or cells: HEK293
# Method Notes: whole-cell patch-clamp of ionic current through SK2 channels in HEK293 cells (SC100)
# Assay type: cell-based
# Details: whole-cell patch-clamp, HEK293 cells expressing SK2 channels; concentration that increases the basal current by 100%
Metric Name: SC100 (μM)

Cc1ccn(-c2nc(NC(C)(C)C)cc(C(C)O)n2)n1 (centres unmarked) [IN10880-065-P1]: + (+ means >1 uM)
Cc1cccc(-c2cc(CO)cc(NC3CCC(F)(F)CC3)n2)n1 [IN11111-063-P1]: + (+ means >1 uM)
COC(=O)N1CC(Oc2cc(NC3CCC(F)(F)CC3)nc(-c3nc(C)no3)n2)C1: + (+ means >1 uM)

###

# Target System: small-conductance Ca2+-activated K+ channels (SK channels, subtype 2) (Homo sapiens, UniProt Q9H2S1)
# Construct: expressed in transfected cells; host or cells: HEK293
# Method Notes: whole-cell patch-clamp of ionic current through SK2 channels in HEK293 cells (SC100)
# Assay type: cell-based
# Details: whole-cell patch-clamp, HEK293 cells expressing SK2 channels; concentration that increases the basal current by 100%
Metric Name: SC100 (μM)

Cc1csc(-c2nc(NC3CCC(F)(F)CC3)cc(N3CCN(C(C)C)CC3)n2)n1 [IN10864-031-P1]: +++ (+++ means <200 nM)
Cc1ccn(-c2cc(C(O)c3cccnc3)cc(NC3CCC(F)(F)CC3)n2)n1 (stereo not shown): +++ (+++ means <200 nM)

###

# Target System: small-conductance Ca2+-activated K+ channels (SK channels, subtype 2) (Homo sapiens, UniProt Q9H2S1)
# Construct: expressed in transfected cells; host or cells: HEK293
# Method Notes: whole-cell patch-clamp of ionic current through SK2 channels in HEK293 cells (SC100)
# Format: cell-based
# Details: whole-cell patch-clamp, HEK293 cells expressing SK2 channels; concentration that increases the basal current by 100%
Metric Name: SC100 (μM)

Examples from the recorded data:
Cc1ccc(-c2nc(NC3CCC(F)(F)CC3)cc(N3CCOCC3)n2)[nH]1 [IN11196-081-P1]: + (+ means >1 uM)
COC(C)c1cc(N(C)C2CCC(F)(F)CC2)nc(-n2ccc(C3CC3)n2)n1 (centres unmarked) [IN11104-100-P1]: + (+ means >1 uM)
Cc1csc(-c2nc(N[C@@H]3CCCC[C@H]3F)cc(N3CCOCC3)n2)n1 [IN11140-086-P1]: + (+ means >1 uM)
COCCOc1cc(NC2CCC(F)(F)CC2)nc(-n2ccc(C)n2)n1 [IN10966-093-P1]: + (+ means >1 uM)
COc1cc(NCCCC(C)(F)F)nc(-c2nc(C)cs2)n1 [IN11107-023-P1]: + (+ means >1 uM)

SC100 (μM) for Fc1cnn(-c2nc(NC3CCC(F)(F)CC3)cc(N3CCOCC3)n2)c1 [IN11030-013-P1] is + (+ means >1 uM)

Lookup result for Cc1ccn(-c2cc(N)nc(NC3CCC(F)(F)CC3)n2)n1 [NSSy6698] ; measured SC100 (μM): + (+ means >1 uM)

Short answer for Cc1csc(-c2nc(C#N)cc(NC3CCC(F)(F)CC3)n2)n1 [IN10880-029-P1] : SC100 (μM) was + (+ means >1 uM)

// Cc1cc(NC2CCC(F)(F)CC2)nc(-n2ccc(C(=O)OC(C)C)n2)n1 [IN11251-020-P1] : SC100 (μM) value = + (+ means >1 uM)

Lab note: Cc1cc(C)n(-c2nc(OC3CCC(F)(F)CC3)cc(N3CCOCC3)n2)n1 [IN10991-021-P1] gave SC100 (μM) of + (+ means >1 uM)

Consider Cc1ccn(-c2nc(NC(C)C)cc(N3CCOC(CO)C3)n2)n1 (centres unmarked) [IN10882-057-P1] . Its measured SC100 (μM) is + (+ means >1 uM)

Data credit: patent US10774064B2
